Reference source: the supplement of paper PMC9170038

tested on: MS2 coat protein; assay: apparent KD of MS2 coat protein; higher = weaker reporter binding; conditions: Eterna round: R101; input ligand: none

>  <sequence_code>
AGGAGAAAUGUAGGAUAUGGGCGGGCGUACGGGCAAAGCGCGUACGCCCGCCCAGAAGGACAUGAGGAUCACCCAUGUUUCCCU [#Lowering the energy 1] (puzzle (switch architecture): Small Loop Exclusion NG 1)

>  <apparent KD of MS2 coat protein, nM>
14.5

$$$$
>  <sequence_code>
AGGCAGCACUGCUACGUGGCCUCACAUGAGGAUCACCCAUGUAAGGAUAUCGGGUAGCAUUACCACGAGAAGGUACAUAAGAGG [Ceisle] (puzzle (switch architecture): Exclusion NG 3)

>  <apparent KD of MS2 coat protein, nM>
15

$$$$

====

Recorded apparent KD of K4 kissing-loop reporter, one value per entry.
system: K4 kissing-loop RNA reporter; assay: apparent KD of K4 kissing-loop reporter; higher = weaker reporter binding; conditions: Eterna round: R107; input ligand: tryptophan 2.4 mM

>  <sequence_code>
AAGUAAUGUAUAGAUUAUAUACAUUAAACAGAGGAUAUGCAUUAUUGCAGAAGGCUGAAUGCAGUGAUGUUGCAAUAAUUAUUUA [JR_SSFMNA_Sub002]

>  <apparent KD of K4 kissing-loop reporter>
146 nM

$$$$
>  <sequence_code>
CGCGAGUCCUUUCAGUGAGUGAUGUUUACGCGAGGACCGGUACGGCCGCCACUCGAUGGUAUACCAAGACAUCAGCAGAUUGUCU [theeternabot_exclusion_KL_Trp_A_18]

>  <apparent KD of K4 kissing-loop reporter>
342 nM

$$$$
>  <sequence_code>
AAAUAAAUCACGGCCGCCACUGUAAGUUGAAGUGAUGUUUCAAGAUAUAGUAUGUUUUAUAAUAUCAGGACCGGGUGAUUUUUAA [JR_SSTryptoB_Sub021]

>  <apparent KD of K4 kissing-loop reporter>
119 nM

$$$$

====

tested on: K4 kissing-loop RNA reporter; test: apparent KD of K4 kissing-loop reporter; higher = weaker reporter binding; details: Eterna round: R107; input ligand: none;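 note: bound reporter read as fluorescence of individual clusters on recovered sequencing chips by microscopy, with normalized cluster intensities fitted with a binding model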

>  <sequence_code>
UUAGAGAUCUCAGGAUAUCAGUGAUGUUGGUUGCCAGAUCUGAGAUAGAAUUCUAUCUCAGAUCAAUGAGAAGGGAGAUCUCAUU [AK4 Exc FMN B]

>  <apparent KD of K4 kissing-loop reporter (µM)>
0.352

$$$$
>  <sequence_code>
UGUAUUUCGGCGGCCGCCACUGACCAUAGCCUUCGAUGGCCAGUGAUGUUGGCCUCUGGCUCUAACAGGACCGGGCCGAAUUGCG [Usvediin]

>  <apparent KD of K4 kissing-loop reporter (µM)>
0.19

$$$$
>  <sequence_code>
UGAUACCAGACGGCCGCCACUACACCAGUCAAAGACUGGAUGUGAUGUUUGACCAGUGAUGUUGGUAGGACCGGGUCUGGUAUCU [TrypBX 5 #Palindromic #SwitchBubble #StaticStem]

>  <apparent KD of K4 kissing-loop reporter (µM)>
0.45

$$$$

====

system: MS2 coat protein; assay: apparent KD of MS2 coat protein; designed switch direction (-1 OFF switch, 1 ON switch): 1; higher = weaker reporter binding; conditions: input ligand: FMN 200 uM
As shown below, each of these sequences has a reported apparent KD of MS2 coat protein value.
reported_endpoint: apparent KD of MS2 coat protein

>  <sequence_code>
GCGAAGAGGUAAGGAUAUUCAUGGCGGAGACAUGAGGAUCACCCAUGUAGGAGACGAAAUCAAAGGGAGAAGGUACCAGGACGC [AK SSNG2-V2-15] (Eterna round: R96, puzzle: Same State NG 2)

>  <assay_system>
MS2 coat protein

>  <reported_endpoint>
apparent KD of MS2 coat protein

>  <observed>
82.2 nM

$$$$
>  <sequence_code>
GAGUGGCAGUAAGGAUAUAUAAUGAUAAUCACAGUAGAAGGUACUGACAUGAGGAUCACCCAUGUAGGACUAAACCAGAGAGAG [Parity 43 - Jieux - Same State NG 1] (Eterna round: R96, puzzle: Same State NG 1)

>  <assay_system>
MS2 coat protein

>  <reported_endpoint>
apparent KD of MS2 coat protein

>  <observed>
33.8 nM

$$$$
>  <sequence_code>
CGGGUGGUUCUAGGAUAUCUAGGAUAUGGACGAGGAUUACCCGAGCAGCAUCAGCGCACCAGAGGAGAGAAGGAGAGUCAUGCG [pwkr ssNG2 2F5 2FMN.9] (Eterna round: R96, puzzle: Same State NG 2)

>  <assay_system>
MS2 coat protein

>  <reported_endpoint>
apparent KD of MS2 coat protein

>  <observed>
105 nM

$$$$
>  <sequence_code>
UUGAAGAAUUAAGGAUAUCGAGUACAUAUGUUAAACAUGAGGAUCACCCAUGUGGGUUGCGGUAUCGAGAAGGUAAAAUACAAG [Mat - Same State NG 2 - JL mod - D58] (Eterna round: R96, puzzle: Same State NG 2)

>  <assay_system>
MS2 coat protein

>  <reported_endpoint>
apparent KD of MS2 coat protein

>  <observed>
28.8 nM

$$$$
>  <sequence_code>
AAAGAAAACGCAGGAUAUCCCGGAAAAGAUCCGGGAGAAGGGUGACCGGUACAUGAGGAUCACCCAUGUAGAGCAAAGGCUCAA [Ceonbeti] (Eterna round: R96, puzzle: Same State NG 1)

>  <assay_system>
MS2 coat protein

>  <reported_endpoint>
apparent KD of MS2 coat protein

>  <observed>
232 nM

$$$$
>  <sequence_code>
GUUACAUGAGGAUCACCCAUGUAUGUGUGGGAGUAAGUGUCUUAGGAUAUCUAUCAUUUAAGUUAAGAGAAGGAAGAUUGUUGU [JMF's solution 95] (Eterna round: R96, puzzle: Same State NG 3)

>  <assay_system>
MS2 coat protein

>  <reported_endpoint>
apparent KD of MS2 coat protein

>  <observed>
135 nM

$$$$
>  <sequence_code>
GCUAGAAUUAAAGCCAACAUGAGGAUCACCCAUGUAUGUUGGUAGGAUAUCGUUUGCAAAGCAAACGAGAAGGGCUAAUCUAGC [Mat - Same State NG 3 - JL Mod - D64] (Eterna round: R96, puzzle: Same State NG 3)

>  <assay_system>
MS2 coat protein

>  <reported_endpoint>
apparent KD of MS2 coat protein

>  <observed>
87 nM

$$$$
>  <sequence_code>
UUGCUCGUGUGAGGAUAUGCCGCCGUUUCGGCUGCAGAAGGUACUACGUUACAUGAGGAUCACCCAUGUCUCUGUUGUUUCGUG [salish99_SSNG1_r04_940] (Eterna round: R96, puzzle: Same State NG 1)

>  <assay_system>
MS2 coat protein

>  <reported_endpoint>
apparent KD of MS2 coat protein

>  <observed>
18.1 nM

$$$$
>  <sequence_code>
AAUCGUUUGAUAGGAUAUCGCUAUACAUGAGGAUCACCCAUGUUUACCACGCUGGUUUUUCGUACUGAGAAGGAUUCUGAUGAU [JL JR sub007 mod 7] (Eterna round: R96, puzzle: Same State NG 2)

>  <assay_system>
MS2 coat protein

>  <reported_endpoint>
apparent KD of MS2 coat protein

>  <observed>
36.1 nM

$$$$
